biological target: Voltage-gated inwardly rectifying potassium channel KCNH2 (Homo sapiens, UniProt Q12809); settings: Potency;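 also: confirmatory quantitative high-throughput screen measuring inhibition of hERG channel activity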
Sequence (Q12809 whole entry): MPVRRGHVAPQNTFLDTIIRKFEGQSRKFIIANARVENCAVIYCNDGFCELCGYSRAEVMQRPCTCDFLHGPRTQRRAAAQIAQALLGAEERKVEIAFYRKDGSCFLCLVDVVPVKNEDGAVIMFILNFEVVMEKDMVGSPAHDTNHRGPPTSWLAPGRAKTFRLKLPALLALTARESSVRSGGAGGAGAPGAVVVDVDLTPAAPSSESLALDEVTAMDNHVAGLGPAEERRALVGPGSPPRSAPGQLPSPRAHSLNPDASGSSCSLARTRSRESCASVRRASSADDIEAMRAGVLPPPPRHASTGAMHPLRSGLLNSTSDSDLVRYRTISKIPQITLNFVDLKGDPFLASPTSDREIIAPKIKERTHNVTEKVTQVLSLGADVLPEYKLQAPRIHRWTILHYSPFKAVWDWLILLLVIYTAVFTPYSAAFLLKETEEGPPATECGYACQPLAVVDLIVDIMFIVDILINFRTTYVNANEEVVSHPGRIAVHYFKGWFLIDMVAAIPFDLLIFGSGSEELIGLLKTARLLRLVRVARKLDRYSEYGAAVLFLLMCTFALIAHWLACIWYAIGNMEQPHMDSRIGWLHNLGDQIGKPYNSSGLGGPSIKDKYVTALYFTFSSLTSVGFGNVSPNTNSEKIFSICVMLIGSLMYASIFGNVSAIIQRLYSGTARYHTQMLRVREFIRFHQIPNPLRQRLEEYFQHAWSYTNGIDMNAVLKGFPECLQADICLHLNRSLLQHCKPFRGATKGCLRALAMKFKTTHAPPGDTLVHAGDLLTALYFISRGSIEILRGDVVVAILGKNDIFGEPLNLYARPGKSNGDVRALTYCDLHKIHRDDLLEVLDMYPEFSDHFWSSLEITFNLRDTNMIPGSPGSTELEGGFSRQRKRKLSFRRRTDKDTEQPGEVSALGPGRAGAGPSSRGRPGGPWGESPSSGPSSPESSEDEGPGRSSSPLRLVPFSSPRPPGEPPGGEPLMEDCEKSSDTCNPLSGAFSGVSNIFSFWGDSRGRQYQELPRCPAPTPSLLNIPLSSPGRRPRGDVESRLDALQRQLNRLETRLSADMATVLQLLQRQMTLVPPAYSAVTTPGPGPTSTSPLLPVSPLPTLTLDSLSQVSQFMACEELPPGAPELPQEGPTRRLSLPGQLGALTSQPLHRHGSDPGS
Listed below: AC50 values for each entry.
EXPERIMENTAL_READOUT: AC50

| COMPOUND | EXPERIMENTAL_READOUT | VAL |
| --- | --- | --- |
| CCCCCCCC/C=C\CCCCCCCC(=O)N(CCO)CCO | AC50 | 31.6 µM (inconclusive) |
| Nc1nc2[nH]c(=O)cnc2c(=O)[nH]1 | AC50 | 17.8 µM (inconclusive) |
| ClC1=C(Cl)C2(Cl)C3C4C=CC(C4)C3C1(Cl)C2(Cl)Cl (centres undefined) | AC50 | 20 µM (inconclusive) |
| CCOC(=O)c1ncn2c1[C@@H]1CCCN1C(=O)c1cc(OC)ccc1-2 | AC50 | 25.1 µM (inconclusive) |

* * *

Listed below: AC50 values for each entry.
molecular target: Cytochrome P450 3A4 (Homo sapiens); details: Potency;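 also: confirmatory qHTS run detecting inhibitors and substrates of CYP3A4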
Sequence (P08684 whole entry): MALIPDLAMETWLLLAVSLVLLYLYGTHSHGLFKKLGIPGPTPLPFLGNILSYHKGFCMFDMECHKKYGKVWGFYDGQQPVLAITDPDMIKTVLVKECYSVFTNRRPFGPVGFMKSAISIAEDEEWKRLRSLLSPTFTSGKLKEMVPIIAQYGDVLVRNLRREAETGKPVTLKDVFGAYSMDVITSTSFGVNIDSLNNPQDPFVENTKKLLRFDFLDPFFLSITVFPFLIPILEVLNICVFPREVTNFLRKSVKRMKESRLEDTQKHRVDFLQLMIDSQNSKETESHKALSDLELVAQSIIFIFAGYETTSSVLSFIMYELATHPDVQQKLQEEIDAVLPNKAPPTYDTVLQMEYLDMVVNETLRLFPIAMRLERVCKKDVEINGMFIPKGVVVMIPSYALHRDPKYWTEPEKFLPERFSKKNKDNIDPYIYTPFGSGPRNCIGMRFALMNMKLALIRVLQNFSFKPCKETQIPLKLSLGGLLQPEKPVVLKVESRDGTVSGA

| MOLECULE | AC50 |
| --- | --- |
| C=C1C(=O)OC2C1CC/C(C)=C/CCC1(C)OC21 (centres undefined) | 25.1 µM (inconclusive) |
| COc1c2c(cc3c1OCO3)C13C=CC(OC)CC1N(C2)CC3O (centres undefined) | 39.8 µM (inconclusive) |
| CNC(=O)[C@H](C)/C=C(\c1cccnc1)C(NC(=O)OCc1ccccc1)c1ccc(C(=O)OC)cc1 (some centres undefined) | 20 µM (inconclusive) |
| CCCCCCCC/C=C\CCCCCCCC(=O)N(CCO)CCO | 12.6 µM (inconclusive) |

* * *

biological target: Protein skinhead-1 (Caenorhabditis elegans); assay type: functional
Sequence (P34707 whole entry): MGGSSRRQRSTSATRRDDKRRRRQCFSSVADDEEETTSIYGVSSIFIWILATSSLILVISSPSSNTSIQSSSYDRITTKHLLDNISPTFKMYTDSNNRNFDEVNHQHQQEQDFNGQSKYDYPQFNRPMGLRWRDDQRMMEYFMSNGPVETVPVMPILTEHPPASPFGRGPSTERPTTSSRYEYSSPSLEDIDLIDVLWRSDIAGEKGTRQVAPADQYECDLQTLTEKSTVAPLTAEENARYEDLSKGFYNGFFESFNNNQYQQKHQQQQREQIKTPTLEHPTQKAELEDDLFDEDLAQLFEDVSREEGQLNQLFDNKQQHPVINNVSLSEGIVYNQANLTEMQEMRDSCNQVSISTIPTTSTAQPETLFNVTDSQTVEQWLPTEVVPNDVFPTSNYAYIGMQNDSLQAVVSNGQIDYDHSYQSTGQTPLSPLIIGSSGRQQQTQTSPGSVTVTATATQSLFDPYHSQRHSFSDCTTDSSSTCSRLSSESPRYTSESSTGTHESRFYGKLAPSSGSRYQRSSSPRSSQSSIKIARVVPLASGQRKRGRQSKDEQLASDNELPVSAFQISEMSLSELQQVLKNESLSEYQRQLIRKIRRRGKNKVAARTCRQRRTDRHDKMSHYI
Active and inactive are the calls of the source.
Possible outcomes: 1.0 for active, 0.0 for inactive

| MOLECULE | ASSIGNED_LABEL |
| --- | --- |
| N=C1C=CC(=C(c2ccc(N)cc2)c2ccc(N)cc2)C=C1 | 1.0 |
| Brc1ccc(-c2csc(-c3ccncc3)n2)cc1 | 0.0 |
| COc1ccc(CC(=O)Nc2cc(S(=O)(=O)N3CCOCC3)ccc2N2CCOCC2)cc1 | 0.0 |
| N#C/C(=C\c1ccc(F)cc1)c1nc(-c2ccco2)cs1 | 0.0 |
| CN(C)c1ccc(N/C=C/C(=O)c2ccco2)cc1 | 0.0 |
| O=C(NC(c1ccc(-c2ccccc2)cc1)c1cnccn1)C1CCN(Cc2cccs2)CC1 (configuration not stated) | 0.0 |
| O=C(O)CCc1ccc(-c2ccccc2)n1NC(=O)c1ccco1 | 0.0 |

* * *

Listed below: AC50 values for each entry.
target: NAD-dependent protein deacylase sirtuin-5, mitochondrial (Homo sapiens, UniProt Q9NXA8); experiment: sirtuin-5 deacylation blockers, concentration series – biochemical, fluorescence imaging, cherry-pick, set 5, dose response (AID 720591);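 also: desuccinylation of succinyl peptide AMC substrate read as fluorescence after trypsin release; potency of inhibitors that lower fluorescence and may act on trypsin instead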
Sequence (Q9NXA8 whole entry): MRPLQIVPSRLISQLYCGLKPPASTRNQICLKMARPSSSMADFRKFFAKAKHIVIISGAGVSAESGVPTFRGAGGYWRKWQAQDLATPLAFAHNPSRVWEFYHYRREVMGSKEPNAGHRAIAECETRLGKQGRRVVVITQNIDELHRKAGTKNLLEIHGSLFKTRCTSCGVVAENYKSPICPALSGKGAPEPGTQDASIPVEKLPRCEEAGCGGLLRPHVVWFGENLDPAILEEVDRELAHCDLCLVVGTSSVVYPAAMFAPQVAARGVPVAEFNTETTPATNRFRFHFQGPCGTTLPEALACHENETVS
The source made the active and inactive calls.
EXPERIMENTAL_READOUT: AC50

| SMI | SUBJECT_OF_TEST | VAL |
| --- | --- | --- |
| CC(=O)c1ccc(OC(=O)Cc2cccc3ccccc23)cc1 | NAD-dependent protein deacylase sirtuin-5, mitochondrial (Homo sapiens, UniProt Q9NXA8) | 10.4 µM (active) |
| COc1cc(C(=O)NNC(=O)C2CCC2)cc(OC)c1OC | NAD-dependent protein deacylase sirtuin-5, mitochondrial (Homo sapiens, UniProt Q9NXA8) | 29.9 µM (active) |
| Cc1cc(CNC(=O)Cc2c(F)cccc2Cl)nn1C | NAD-dependent protein deacylase sirtuin-5, mitochondrial (Homo sapiens, UniProt Q9NXA8) | > 30 µM (inactive) |
| Cc1cccc(-n2c(SCC(N)=O)nnc2-c2ccco2)c1 | NAD-dependent protein deacylase sirtuin-5, mitochondrial (Homo sapiens, UniProt Q9NXA8) | > 30 µM (inactive) |

Where do the numbers come from? From ChEMBL document CHEMBL1201862.
